Test system: H1299
Assay: IC50 studies, monolayer cell culture assay (CellTiter-Glo cell viability, 72 hours)
Format: cell-based
Details: Homo sapiens, NCI-H1299, H1299, lung, Test I, read-out: IC50 Test(I) Avg
READOUT NAME: IC50 (µM)
Give bare numbers, in µM.

Exam item: Query (compound): CC1(C)CCC(C)(C)c2cc(NC(=O)c3ccc(C(=O)O)cc3)ccc21 [TAM, reference compound] ; field requested: IC50
Marked response: 78.9

---

Hi there, I'd appreciate the recorded IC50 for every entry that follows.
Tested on: SAOS
Test: IC50 studies, monolayer cell culture assay (CellTiter-Glo cell viability, 72 hours)
Type: cell-based
Details: sarcoma, Test II, read-out: IC50 Test (II) Avg

Below, 2 compounds whose answers are already recorded.
{"COMPOUND": "CC1(C)CCC(C)(C)c2cc(NC(=O)c3ccc(C(=O)O)cc3)ccc21 [TAM, reference compound]", "IC50": "46.5 µM"}
{"COMPOUND": "CC1(C)CCC(C)(C)c2cc(NC(=O)c3ccc(C(=O)O)cc3)ccc21.O=C(O)c1ccc(-c2ccccc2)cc1", "IC50": "37.1 µM"}

Here's the next entry for you.
Exam item: Provide the documented IC50 with SAOS as the system for CC1(C)CCC(C)(C)c2cc(NC(=O)c3ccc(C(=O)O)cc3)ccc21.O=C(O)c1cc(O)c(O)c(O)c1
Marked response: 9.98 µM
